B1: library; a variant is named by its letters at N, in order (parent)
chain: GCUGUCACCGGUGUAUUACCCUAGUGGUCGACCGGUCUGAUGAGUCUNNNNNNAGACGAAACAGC

Variants of: B1
Experiment: normalized RNA/DNA level without ligand (relative to sTRSVctl = 100) (log10 (% of sTRSVctl)); ligand: hypoxanthine (xanthine aptamer); higher = less ribozyme self-cleavage, higher mRNA level
Conditions: HEK293T, reporter: mCherry (pCS4076), ligand present: no
quantity_measured: normalized RNA/DNA level without ligand (log10)
Answers are plain numbers.

{"variant_descriptor": "UAGGAA", "measured_value": 1.64}
{"variant_descriptor": "UUGUGA", "measured_value": 1.8}
{"variant_descriptor": "CAAGCU", "measured_value": 1.89}
{"variant_descriptor": "AAGAUU", "measured_value": 1.8}
{"variant_descriptor": "UCGAUA", "measured_value": 1.57}
{"variant_descriptor": "CCGUUA", "measured_value": 1.75}
{"variant_descriptor": "UCCGAC", "measured_value": 1.8}
{"variant_descriptor": "CCUUUA", "measured_value": 1.84}

Provide reported normalized RNA/DNA level without ligand (log10) for each item, in the same order as listed.
1. AGUGAC
2. CUGGCU
3. ACAUCC
4. CCCUCC
5. GGUGUG
6. CAGCAC
7. UAAGCC

Reply:
1: 1.81; 2: 1.91; 3: 1.93; 4: 2; 5: 1.29; 6: 1.81; 7: 1.88

Task item: Determine its reported normalized RNA/DNA level without ligand (log10): ACGCUC
Reply: 1.91
